condition-label: 298.15 K; 101.3 kPa; Liquid
readout: mass density (kg/m3)
The figure you give is taken to be in kg/m3; do not add the unit.

Ask | Record request: mass density value, item "CC(C)O"
Reply | 781.1

Ask | Consider the compound "CCCO" and give its measured mass density.
Reply | 799.8

Ask | Report mass density for "CCO" please.
Reply | 785.2

Ask | mass density for "CO" ?
Reply | 786.4

Ask | Entry "CCCCO" : reported mass density = ?
Reply | 805.9

###

So I've got a bunch of molecules here, and I need their Normal boiling temperature values.
condition-label: Liquid; Ebulliometric method (Recirculating still)
Form entry: value (°C) — number only.

Ask | Find the recorded Normal boiling temperature belonging to "CCO" and report it.
Reply | 78.26

Ask | Please report the recorded Normal boiling temperature for "CCCO" .
Reply | 97.16

Ask | Query: Normal boiling temperature; subject: "CCCCO"
Reply | 117.71

Ask | Which Normal boiling temperature is listed for "CC(C)O" ?
Reply | 82.20

Ask | Look up Normal boiling temperature for this molecule: "OCCO"
Reply | 197.23

Ask | Fill blank: measured Normal boiling temperature of the molecule "CO" is ____.
Reply | 64.47
